Target: bovine LPL (Bos taurus, UniProt P11151)
Sequence (P11151 29-478): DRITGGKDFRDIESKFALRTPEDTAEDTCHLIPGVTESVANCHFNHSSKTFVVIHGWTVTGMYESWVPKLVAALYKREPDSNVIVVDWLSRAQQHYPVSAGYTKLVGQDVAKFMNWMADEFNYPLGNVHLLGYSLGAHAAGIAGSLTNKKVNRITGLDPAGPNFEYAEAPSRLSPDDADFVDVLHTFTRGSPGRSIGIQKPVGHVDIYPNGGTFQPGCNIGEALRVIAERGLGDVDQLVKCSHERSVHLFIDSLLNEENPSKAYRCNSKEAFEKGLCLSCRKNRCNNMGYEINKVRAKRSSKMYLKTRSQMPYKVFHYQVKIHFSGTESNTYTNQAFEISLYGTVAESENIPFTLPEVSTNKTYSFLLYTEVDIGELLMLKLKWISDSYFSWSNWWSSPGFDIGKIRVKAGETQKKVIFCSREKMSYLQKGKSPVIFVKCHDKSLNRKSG
Test: in vitro LPL assay using apoC-II deficient patient sera as substrate
Assay type: biochemical
Conditions: FIG. 52
Non-standard residues stand in square brackets, D forms with d. No end group written: not given here. Aib = CC(C)(N)C(=O)O
Property Name: LPL activation / TG hydrolysis

>  <Substance>
DYLKEVFEKLRDLYEKFTPAVSTYTGIFTDQVLSVLKGEE [Delta6PV]

>  <Property Name>
LPL activation / TG hydrolysis

>  <Observed Measurement>
activated LPL in vitro

$$$$
>  <Substance>
DYLKEVAibEKLRDLYEKAibFPAVSTYTGIFTDQVLSVLKGEE (DYLKEV[Aib]EKLRDLYEK[Aib]FPAVSTYTGIFTDQVLSVLKGEE) [Delta6T18F-PV-AIB7,17]

>  <Property Name>
LPL activation / TG hydrolysis

>  <Observed Measurement>
activated LPL in vitro

$$$$
>  <Substance>
DYLKEVFEKLRDLYEKFFPAVSTYTGIFTDQVLSVLKGEE [Delta6T18F-PV]

>  <Property Name>
LPL activation / TG hydrolysis

>  <Observed Measurement>
activated LPL in vitro

$$$$
